- condition_label: buffer; pH 7.4; 200.0 µM
quantity_name: solubility kinetic (µg/mL)

{"columns": ["molecule", "relation_operator", "assay_value"],
 "data": [
  ["O=C(c1ccc2ccccc2c1)N1CCCC1", "=", 19.7],
  ["COC(=O)c1sc(NC(=O)COc2c(C)cccc2C)nc1C", "=", 0.4],
  ["COc1cccc(NC(=O)COC(=O)C2CCCCC2)c1", ">", 43.7],
  ["Cc1cc(NC(=O)CSc2nc3c(cc2C#N)CCCCC3)no1", "<", 0.2],
  ["O=C1NC(=Nc2ccccc2)S/C1=C\\c1cccnc1", "=", 2],
  ["O=C(CSc1ccsc1[N+](=O)[O-])NCc1ccccc1", "=", 9],
  ["C=CCc1ccccc1Oc1cc(F)nc(N)n1", "=", 27.7],
  ["O=C(COC(=O)/C=C/c1ccco1)Nc1cc(S(=O)(=O)N2CCOCC2)ccc1Cl", "=", 2.7],
  ["O=C(CC(Cc1ccccc1)C(=O)O)Nc1ccccc1 (stereo not given)", ">", 42.5],
  ["O=C1COc2ccc(C(=O)CCl)cc2N1", ">", 33.8],
  ["CCOC(=O)C1(C(F)(F)F)N=C(c2ccccc2F)OC(N(C)C)=N1 (stereo not given)", "=", 42.2],
  ["CCOc1ccc(S(=O)(=O)N2CCN(c3ncccn3)CC2)cc1", "=", 2.7],
  ["COc1ccc(CNC(=O)C2CCN(S(C)(=O)=O)CC2)c(OC)c1", ">", 53.5],
  ["COC(=O)COc1ccc(-c2nccc(-c3ccccn3)n2)cc1", "=", 2.4],
  ["O=S(=O)(c1cccc2cccc(Cl)c12)N1CCCC1", "=", 15],
  ["COc1cccc(-n2cn[nH]c2=S)c1", ">", 31.1],
  ["CCN(CC)C(=O)n1c(Cc2ccccc2)nc2ccccc21", ">", 46.1],
  ["O=C1/C(=C/c2ccccc2Cl)N2CCC1CC2", "=", 22.8],
  ["CN(CC(=O)Nc1cccc2ccccc12)C(=O)c1ccc(NC(=O)CC#N)cc1", ">", 60.1],
  ["O=C(CC1SC(=Nc2ccc(O)cc2)NC1=O)Nc1ccccc1 (stereo not given)", "=", 3.9],
  ["CC(Oc1ccc(C#N)cc1)C(=O)NC1CCCC1 (stereo not given)", ">", 38.7],
  ["COC(=O)c1cn(CC(=O)Nc2ccc(OC)cc2)c2ccccc12", "<", 0.4],
  ["COc1cccc(NC(=O)CN2CCCCCC2)c1.Cl", "=", 44.1],
  ["CC(=O)c1cccc(NC(=O)COC(=O)CCNS(=O)(=O)c2ccccc2)c1", ">", 60.7],
  ["CC(C)NC(=O)NNc1c(Cl)cncc1Cl", ">", 39.5],
  ["CCOC(=O)C(=CNc1ccccc1N1CCOCC1)C(=O)OCC", "=", 45.6],
  ["Cc1ccc(C(C)C)cc1OCC(=O)NCCCn1ccnc1", ">", 47.3],
  ["O=C(NCCCN1CCOCC1)C(c1ccccc1)c1ccccc1", ">", 50.8],
  ["O=C(OCC(=O)c1ccc[nH]1)c1cncc(Br)c1", "=", 24.2],
  ["Cc1ccc(CCC(=O)Nc2ccc(C#N)cc2)o1", "=", 37],
  ["O=C(Cc1ccccc1F)Nc1ccccc1N1CCCC1", "=", 27.8],
  ["O=C(Nc1cc(Cl)cc(Cl)c1)c1cccnc1", "=", 17.6],
  ["O=C(COC(=O)c1cc(Br)ccc1O)NC12CC3CC(CC(C3)C1)C2", "=", 3.1],
  ["Cc1ccc(NC(=O)CCc2ccc(S(=O)(=O)N3CCOCC3)cc2)c(Cl)c1", "=", 6.1],
  ["O=C(O)c1cc(Cl)nc2ccccc12", ">", 31.1],
  ["Cc1cccn2c(Nc3ccccc3)c(-c3ccccn3)nc12", "=", 31.2],
  ["NC(=O)CSc1ccc(F)cc1", ">", 27.8],
  ["CC(CCc1ccccc1)NC(=O)COC(=O)c1ccccc1O (stereo not given)", "=", 1.8],
  ["CN1CCN(S(=O)(=O)c2cccc(C(=O)O)c2)CC1", "=", 42],
  ["Clc1ccc(CN2CCCCCC2)cc1Cl", "=", 9],
  ["O=C(CS(=O)(=O)c1ccccc1)NCc1ccccc1", ">", 43.4],
  ["O=C(O)C(=O)O.c1ccc(CCNC2CCCCCC2)cc1", "=", 45.3],
  ["COc1ccc(C(=O)N(Cc2ccccc2)c2cccc(C)c2)cc1", "=", 15.8],
  ["C/C(=N\\NC(=O)c1ccn(C)n1)c1ccco1", ">", 34.8],
  ["CCC(Oc1ccccc1)C(=O)NCCCN1CCOCC1 (stereo not given)", ">", 46],
  ["O=C(COC(=O)c1ccco1)NCc1ccc(Cl)cc1", "=", 16.4],
  ["Cc1ccc(S(=O)(=O)N(C)C)cc1NC(=O)C(C)OC(=O)C1CCC1 (stereo not given)", ">", 55.3],
  ["CCN(c1ccccc1)S(=O)(=O)c1ccc(N2CCN(c3ccc(OC)cc3)CC2)nc1", "=", 1.2],
  ["COc1cc(OC)c(C(=S)N2CCCC2)cc1OC", "=", 38.9],
  ["COc1ccccc1N(CC(=O)NC1CCCCC1C)S(=O)(=O)c1cccs1 (stereo not given)", "=", 2]
]}
